# test details: Apparent volume of distribution during terminal phase in healthy human subjects at 10 mg/kg, iv administered as 30 mins infusion every 24 hrs measured on day 4
# Type: ADME, organism-based
# Design: dose 10 mg/kg, route intravenous
# assay conditions: in vivo
observable: Vd (L/kg)
Give the number; L/kg is assumed, so skip it.

Consider the compound shown here: CCCCCCCCCC(=O)N[C@@H](Cc1c[nH]c2ccccc12)C(=O)N[C@H](CC(N)=O)C(=O)N[C@@H](CC(=O)O)C(=O)N[C@@H]1C(=O)NCC(=O)N[C@@H](CCCN)C(=O)N[C@@H](CC(=O)O)C(=O)N[C@H](C)C(=O)N[C@@H](CC(=O)O)C(=O)NCC(=O)N[C@H](CO)C(=O)N[C@@H]([C@H](C)CC(=O)O)C(=O)N[C@@H](CC(=O)c2ccccc2N)C(=O)O[C@@H]1C What is its recorded Vd?
0.0983

====

# test details: Cmax in healthy human subjects at 8 mg/kg, iv administered as 30 mins infusion every 24 hrs measured on day 4
# Format: ADME, organism-based
# Parameters: dose 8 mg/kg, route intravenous
# assay conditions: in vivo
observable: Cmax
Don't forget the unit after the value.

Entry CCCCCCCCCC(=O)N[C@@H](Cc1c[nH]c2ccccc12)C(=O)N[C@H](CC(N)=O)C(=O)N[C@@H](CC(=O)O)C(=O)N[C@@H]1C(=O)NCC(=O)N[C@@H](CCCN)C(=O)N[C@@H](CC(=O)O)C(=O)N[C@H](C)C(=O)N[C@@H](CC(=O)O)C(=O)NCC(=O)N[C@H](CO)C(=O)N[C@@H]([C@H](C)CC(=O)O)C(=O)N[C@@H](CC(=O)c2ccccc2N)C(=O)O[C@@H]1C : reported Cmax = ?
123 µg/mL

====

# test details: Plasma concentration in cancer patient with neutropenic fever at 6 mg/kg, iv administered as 30 mins infusion every 24 hrs measured after 24 hrs
# Assay type: ADME, organism-based
# Design: dose 6 mg/kg, route intravenous
# assay conditions: human
observable: concentration at 24 h

Which value of concentration at 24 h has been reported for CCCCCCCCCC(=O)N[C@@H](Cc1c[nH]c2ccccc12)C(=O)N[C@H](CC(N)=O)C(=O)N[C@@H](CC(=O)O)C(=O)N[C@@H]1C(=O)NCC(=O)N[C@@H](CCCN)C(=O)N[C@@H](CC(=O)O)C(=O)N[C@H](C)C(=O)N[C@@H](CC(=O)O)C(=O)NCC(=O)N[C@H](CO)C(=O)N[C@@H]([C@H](C)CC(=O)O)C(=O)N[C@@H](CC(=O)c2ccccc2N)C(=O)O[C@@H]1C in the records?
5670 ng/mL

====

# test details: Tmax in cancer patient with neutropenic fever at 6 mg/kg, iv administered as 30 mins infusion every 24 hrs
# Type: ADME, organism-based
# Set-up: dose 6 mg/kg, route intravenous
# assay conditions: human, in vivo
observable: Tmax
Please report the result as a number followed by the unit.

Name the recorded Tmax for CCCCCCCCCC(=O)N[C@@H](Cc1c[nH]c2ccccc12)C(=O)N[C@H](CC(N)=O)C(=O)N[C@@H](CC(=O)O)C(=O)N[C@@H]1C(=O)NCC(=O)N[C@@H](CCCN)C(=O)N[C@@H](CC(=O)O)C(=O)N[C@H](C)C(=O)N[C@@H](CC(=O)O)C(=O)NCC(=O)N[C@H](CO)C(=O)N[C@@H]([C@H](C)CC(=O)O)C(=O)N[C@@H](CC(=O)c2ccccc2N)C(=O)O[C@@H]1C .
36 min
